relative viability values, listed per item
- Tested on: 201T
- procedure.summary: relative viability (nuclei count vs DMSO), 5 days (fraction); higher = more cells survive
- test.parameters: first compound 0.08 µM
The answer should be a number; do not append a unit.

- molecule: "COc1nc(C)cnc1NS(=O)(=O)c1cccnc1-c1ccc(-c2nnco2)cc1 [Zibotentan] + CC(=O)c1c(C)c2cnc(Nc3ccc(N4CCNCC4)cn3)nc2n(C2CCCC2)c1=O [Palbociclib] (partner 0.5 µM)"
  relative viability: 0.357
- molecule: "COc1nc(C)cnc1NS(=O)(=O)c1cccnc1-c1ccc(-c2nnco2)cc1 [Zibotentan] + CC1(C)CCC(c2ccc(Cl)cc2)=C(CN2CCN(c3ccc(C(=O)NS(=O)(=O)c4ccc(N[C@H](CCN5CCOCC5)CSc5ccccc5)c(S(=O)(=O)C(F)(F)F)c4)cc3)CC2)C1 [Navitoclax] (partner 0.5 µM)"
  relative viability: 1.23
- molecule: "O=c1cc(-c2cccc3c2Sc2ccccc2S3)oc(N2CCOCC2)c1 + O=C(CCCCCCC(=O)Nc1ccccc1)NO [Vorinostat] (partner 1 µM)"
  relative viability: 0.919

Here's the next entry for you.
Requested field: relative viability. Item: O=c1cc(-c2cccc3c2Sc2ccccc2S3)oc(N2CCOCC2)c1 + COc1cc2c(Oc3ccc(NC(=O)C4(C(=O)Nc5ccc(F)cc5)CC4)cc3F)ccnc2cc1OCCCN1CCOCC1 [Foretinib] (partner 0.25 µM)
1.14

###

- Test system: CAL-12T
- procedure.summary: relative viability (nuclei count vs DMSO), 5 days (fraction); higher = more cells survive
- test.parameters: first compound 0.8 µM
recorded.metric: relative viability
The answer should be a number; do not append a unit.

In the examples that follow, each entry is paired with its recorded relative viability.
- molecule: "O=c1cc(-c2cccc3c2Sc2ccccc2S3)oc(N2CCOCC2)c1 + CS(=O)(=O)CCNCc1ccc(-c2ccc3ncnc(Nc4ccc(OCc5cccc(F)c5)c(Cl)c4)c3c2)o1 [Lapatinib] (partner 2 µM)"
  target.or.system: "CAL-12T"
  recorded.metric: "relative viability"
  experimental.result: 0.595
- molecule: "O=c1cc(-c2cccc3c2Sc2ccccc2S3)oc(N2CCOCC2)c1 + CS(=O)(=O)N1CCN(Cc2cc3nc(-c4cccc5[nH]ncc45)nc(N4CCOCC4)c3s2)CC1 [Pictilisib] (partner 1 µM)"
  target.or.system: "CAL-12T"
  recorded.metric: "relative viability"
  experimental.result: 0.418

Here's the next entry for you.
Requested field: relative viability. Item: O=c1cc(-c2cccc3c2Sc2ccccc2S3)oc(N2CCOCC2)c1 + O=C(c1cc(Cc2n[nH]c(=O)c3ccccc23)ccc1F)N1CCN(C(=O)C2CC2)CC1 [Olaparib] (partner 8 µM)
0.759

###

- Test system: NCI-H650
- procedure.summary: relative viability (nuclei count vs DMSO), 5 days (fraction); higher = more cells survive
- test.parameters: first compound 0.8 µM
recorded.metric: relative viability
The answer should be a number; do not append a unit.

In the examples that follow, each entry is paired with its recorded relative viability.
- compound: "O=c1cc(-c2cccc3c2Sc2ccccc2S3)oc(N2CCOCC2)c1 + Nc1ncn([C@H]2C[C@H](O)[C@@H](CO)O2)c(=O)n1 [Decitabine] (partner 2 µM)"
  target.or.system: "NCI-H650"
  experimental.result: 0.513
- compound: "O=c1cc(-c2cccc3c2Sc2ccccc2S3)oc(N2CCOCC2)c1 + NC(=O)Nc1cc(-c2cccc(F)c2)sc1C(=O)N[C@H]1CCCNC1 [AZD7762] (partner 0.2 µM)"
  target.or.system: "NCI-H650"
  experimental.result: 1.03

Requested field: relative viability. Item: COc1nc(C)cnc1NS(=O)(=O)c1cccnc1-c1ccc(-c2nnco2)cc1 [Zibotentan] + CC(=O)c1c(C)c2cnc(Nc3ccc(N4CCNCC4)cn3)nc2n(C2CCCC2)c1=O [Palbociclib] (partner 0.5 µM)
0.351

Next compound: O=c1cc(-c2cccc3c2Sc2ccccc2S3)oc(N2CCOCC2)c1 + CC(C)C[C@H](NC(=O)[C@H](Cc1ccccc1)NC(=O)c1cnccn1)B(O)O [Bortezomib] (partner 0.002 µM)
0.869

Next compound: O=c1cc(-c2cccc3c2Sc2ccccc2S3)oc(N2CCOCC2)c1 + Cc1nc(NC(=O)N2CCC[C@H]2C(N)=O)sc1-c1ccnc(C(C)(C)C(F)(F)F)c1 [Alpelisib] (partner 2 µM)
1.11

Next compound: O=c1cc(-c2cccc3c2Sc2ccccc2S3)oc(N2CCOCC2)c1 + CC(=O)c1c(C)c2cnc(Nc3ccc(N4CCNCC4)cn3)nc2n(C2CCCC2)c1=O [Palbociclib] (partner 0.5 µM)
0.372

###

- Test system: NCI-H661
- procedure.summary: relative viability (nuclei count vs DMSO), 5 days (fraction); higher = more cells survive
- test.parameters: first compound 0.6325 µM
recorded.metric: relative viability

In the examples that follow, each entry is paired with its recorded relative viability.
- compound: "COCC1(CO)C(=O)C2CCN1CC2 (centres undefined) [PRIMA-1MET] + Cc1nc(Nc2ncc(C(=O)Nc3c(C)cccc3Cl)s2)cc(N2CCN(CCO)CC2)n1 [Dasatinib] (partner 0.075 µM)"
  experimental.result: 0.733
- compound: "COCC1(CO)C(=O)C2CCN1CC2 (centres undefined) [PRIMA-1MET] + Nc1ncn([C@H]2C[C@H](O)[C@@H](CO)O2)c(=O)n1 [Decitabine] (partner 2 µM)"
  experimental.result: 0.459
- compound: "COCC1(CO)C(=O)C2CCN1CC2 (centres undefined) [PRIMA-1MET] + CS(=O)(=O)CCNCc1ccc(-c2ccc3ncnc(Nc4ccc(OCc5cccc(F)c5)c(Cl)c4)c3c2)o1 [Lapatinib] (partner 2 µM)"
  experimental.result: 0.467

Here's the next entry for you.
Requested field: relative viability. Item: COCC1(CO)C(=O)C2CCN1CC2 (centres undefined) [PRIMA-1MET] + O=C(CCCCCCC(=O)Nc1ccccc1)NO [Vorinostat] (partner 1 µM)
0.771

###

- Test system: COR-L 105
- procedure.summary: relative viability (nuclei count vs DMSO), 5 days (fraction); higher = more cells survive
- test.parameters: first compound 0.253 µM
# met = relative viability below 0.4 (exclusive); not met = relative viability at/above 0.4

Worked set:
- compound: "O=c1cc(-c2cccc3c2Sc2ccccc2S3)oc(N2CCOCC2)c1 + COc1cc2c(Oc3ccc(NC(=O)C4(C(=O)Nc5ccc(F)cc5)CC4)cc3F)ccnc2cc1OCCCN1CCOCC1 [Foretinib] (partner 0.25 µM)"
  class: "not met"
- compound: "O=c1cc(-c2cccc3c2Sc2ccccc2S3)oc(N2CCOCC2)c1 + O=C(CCCCCCC(=O)Nc1ccccc1)NO [Vorinostat] (partner 1 µM)"
  class: "not met"
- compound: "O=c1cc(-c2cccc3c2Sc2ccccc2S3)oc(N2CCOCC2)c1 + N=C(N)NC(=N)NCCc1ccccc1 [Phenformin] (partner 250 µM)"
  class: "not met"
- compound: "COc1nc(C)cnc1NS(=O)(=O)c1cccnc1-c1ccc(-c2nnco2)cc1 [Zibotentan] + Nc1nc2[nH]cc(CCc3ccc(C(=O)N[C@@H](CCC(=O)O)C(=O)O)cc3)c2c(=O)[nH]1 [Pemetrexed] (partner 0.2 µM)"
  class: "not met"
- compound: "COc1nc(C)cnc1NS(=O)(=O)c1cccnc1-c1ccc(-c2nnco2)cc1 [Zibotentan] + CC(=O)c1c(C)c2cnc(Nc3ccc(N4CCNCC4)cn3)nc2n(C2CCCC2)c1=O [Palbociclib] (partner 0.5 µM)"
  class: "met"

# strict comparison: is reported relative viability < 0.4? input = O=c1cc(-c2cccc3c2Sc2ccccc2S3)oc(N2CCOCC2)c1 + COc1cccc2cc(-c3nc([C@H]4CC[C@H](C(=O)O)CC4)n4ncnc(N)c34)[nH]c12 [OSI-027] (partner 0.5 µM)
not met

Next compound: COc1nc(C)cnc1NS(=O)(=O)c1cccnc1-c1ccc(-c2nnco2)cc1 [Zibotentan] + CS(=O)(=O)CCNCc1ccc(-c2ccc3ncnc(Nc4ccc(OCc5cccc(F)c5)c(Cl)c4)c3c2)o1 [Lapatinib] (partner 2 µM)
met

Next compound: COc1nc(C)cnc1NS(=O)(=O)c1cccnc1-c1ccc(-c2nnco2)cc1 [Zibotentan] + Cc1cc(Nc2cc(N3CCN(C)CC3)nc(Sc3ccc(NC(=O)C4CC4)cc3)n2)n[nH]1 [Tozasertib] (partner 0.1 µM)
met

Next compound: COc1nc(C)cnc1NS(=O)(=O)c1cccnc1-c1ccc(-c2nnco2)cc1 [Zibotentan] + Nc1ncn([C@H]2C[C@H](O)[C@@H](CO)O2)c(=O)n1 [Decitabine] (partner 2 µM)
not met

Next compound: COc1nc(C)cnc1NS(=O)(=O)c1cccnc1-c1ccc(-c2nnco2)cc1 [Zibotentan] + COc1cc2c(Oc3ccc(NC(=O)C4(C(=O)Nc5ccc(F)cc5)CC4)cc3F)ccnc2cc1OCCCN1CCOCC1 [Foretinib] (partner 0.25 µM)
not met

Next compound: O=c1cc(-c2cccc3c2Sc2ccccc2S3)oc(N2CCOCC2)c1 + Cc1nc(NC(=O)N2CCC[C@H]2C(N)=O)sc1-c1ccnc(C(C)(C)C(F)(F)F)c1 [Alpelisib] (partner 2 µM)
not met
